Biological target: DAEFRH-peptide-specific monoclonal antibody (Example 1)
Experiment: inhibition ELISA, competitor plate-bound DAEFRH-C-BSA
Let's look at some binders and their measured IC50.

# count of solved cases: 5
[
  {
    "binder": "DAELRY [Peptide 4031]",
    "IC50": "< 0.5 µg/mL"
  },
  {
    "binder": "DRELRIC [Peptide 1235]",
    "IC50": "< 0.5 µg/mL"
  },
  {
    "binder": "SLEFRF [Peptide 4033]",
    "IC50": "< 0.5 µg/mL"
  },
  {
    "binder": "SFEFRGC [Peptide 3009]",
    "IC50": "< 5 µg/mL"
  },
  {
    "binder": "DKELRC [Peptide 1238]",
    "IC50": "< 0.5 µg/mL"
  }
]

Input line: Return reported IC50; argument: DWELRQ [Peptide 4032]
Output line: < 0.5 µg/mL

Input line: If you can, please state the reported IC50 value of SVEFRYH [Peptide 4021] .
Output line: < 0.5 µg/mL

Input line: Look up IC50 for this binder: SWELRQA [Peptide 4020]
Output line: > 0.5 µg/mL

Hey, just so you know, these numbers are from patent US20130287807A1.
